testSystem: OPRK1 (Homo sapiens)
Construct: purchased Promega (in-house HiBiT-GPCR construct library, NanoBRET)
Sequence (P41145 whole entry): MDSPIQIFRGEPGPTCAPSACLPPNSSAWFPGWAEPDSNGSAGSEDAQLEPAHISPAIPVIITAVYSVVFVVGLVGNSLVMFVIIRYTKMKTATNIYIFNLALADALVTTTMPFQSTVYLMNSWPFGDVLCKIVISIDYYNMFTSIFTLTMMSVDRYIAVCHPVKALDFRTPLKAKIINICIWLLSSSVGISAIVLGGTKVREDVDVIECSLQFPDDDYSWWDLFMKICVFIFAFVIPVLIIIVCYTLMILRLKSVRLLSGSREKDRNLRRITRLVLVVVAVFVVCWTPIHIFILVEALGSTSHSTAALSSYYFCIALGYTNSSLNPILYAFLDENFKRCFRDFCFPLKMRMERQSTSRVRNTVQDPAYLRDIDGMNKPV
assayMethodText: NanoBRET screen HiBiT-OPRK1 in HEK293
Format: binding
testContext: OPRK1; tracer 0.1μM
Experimental: Each tracer candidate was screened across the entire library of HiBiT-GPCR constructs using NanoBRET as the detection modality. As depicted in Figure 4A, the specificity of interactions was evaluated through decrease in BRET due to competitive displacement of a bound tracer by excess parental compound. Each tracer was analyzed for binding to each HiBiT-GPCR fusion in the absence and in the presence of competing parental compound. […]
Provide the recorded NanoBRET Fold Response for the entries that follow.
One number for each entry.

Example entries begin here.
[[record]]
testsmiles = "COc1ccccc1N1CCN(CCCCN2C(=O)c3ccc(CNC(=O)CCOCCNC(=O)c4ccc(CNC(=O)CCc5ccc6n5[B-](F)(F)[N+]5=C(c7ccc[nH]7)C=CC5=C6)cc4)cc3C2=O)CC1"
quantitymeasured = "NanoBRET Fold Response"
val = 0.89

[[record]]
testsmiles = "N#CN=C(NCCCOc1cccc(CN2CCCCC2)c1)NCCNC(=O)CCOCCOCCOCCOCCNC(=O)CCc1ccc2n1[B-](F)(F)[N+]1=C(c3ccc[nH]3)C=CC1=C2"
quantitymeasured = "NanoBRET Fold Response"
val = 1.14


Here is another compound to look at.
Answer with the recorded NanoBRET Fold Response of Cc1cc2c(s1)Nc1ccccc1N=C2N1CCN(CCCNC(=O)CCOCCOCCOCCOCCNC(=O)CCc2ccc3n2[B-](F)(F)[N+]2=C(c4ccc[nH]4)C=CC2=C3)CC1 only.
0.92
